Target: T1, hu-M-IL1RAP construct, positions S21-T367 (extracellular domain of the membrane form of human IL1RAP) (human, UniProt Q9NPH3 21-367)
T1 construct: Biotinylated when captured on the Biacore chip
T1 sequence: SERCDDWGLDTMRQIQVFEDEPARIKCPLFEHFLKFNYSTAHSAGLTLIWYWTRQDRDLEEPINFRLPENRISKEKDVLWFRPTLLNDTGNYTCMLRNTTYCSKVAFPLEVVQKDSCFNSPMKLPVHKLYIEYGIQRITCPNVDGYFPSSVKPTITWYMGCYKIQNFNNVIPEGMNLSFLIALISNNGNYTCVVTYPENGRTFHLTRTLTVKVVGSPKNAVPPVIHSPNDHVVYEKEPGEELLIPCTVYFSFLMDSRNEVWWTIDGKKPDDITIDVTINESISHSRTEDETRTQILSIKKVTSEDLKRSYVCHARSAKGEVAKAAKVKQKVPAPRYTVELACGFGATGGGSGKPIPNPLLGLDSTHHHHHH
Test: SPR, Fab analyte, 37 C
Reported koff values for the following binders.
Give the value in s⁻¹ but do not write s⁻¹ after it.

binder="K10 Fab (VL A51Y) (Fab, V domains shown, Fab with 8xHis tag) VH: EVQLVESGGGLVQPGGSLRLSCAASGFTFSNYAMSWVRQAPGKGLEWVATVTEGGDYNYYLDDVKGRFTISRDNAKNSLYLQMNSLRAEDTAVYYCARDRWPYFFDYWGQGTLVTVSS VL: DIQMTQSPSSLSASVGDRVTITCRASENIYSNLAWYQQKPGKSPKLLVYGYKNLADGVPSRFSGSGSGTDYTLTISSLQPEDFATYYCQHFWTTPRTFGGGTKVEIK" reading=0.000153

Output measured koff for this item: H11 Fab (VH W97F) (Fab, V domains shown, Fab with 8xHis tag) VH: EVQLVESGGGLVQPGGSLRLSCAASGFTFSNYAMSWVRQAPGKGLEWVATVTEGGDYNYYLDDVKGRFTISRDNAKNSLYLQMNSLRAEDTAVYYCARDRFPYFFDYWGQGTLVTVSS VL: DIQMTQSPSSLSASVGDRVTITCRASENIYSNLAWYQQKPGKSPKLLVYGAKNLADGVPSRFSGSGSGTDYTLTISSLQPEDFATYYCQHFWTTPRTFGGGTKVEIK
0.00441
